test system: SNB-75 CNS; assay: NCI tumour cell line growth inhibition, 48 h

Compound: C=C1C(=O)O[C@H]2[C@H]1CC/C(Cn1cc(-c3ccccc3)nn1)=C\CC[C@@]1(C)O[C@@H]21
TGI: 13 µM

Compound: C=C[C@H]1CN2CCc3c([nH]c4c([C@H]5CCCN5C)c(O)ccc34)[C@@H]2C[C@@H]1C[C@H]1c2[nH]c3ccccc3c2CCN1C
TGI: 2.4 µM

Compound: O=C1CC2(CCC(O)(c3ccc(Cl)cc3)C(C(=O)c3ccc(Cl)cc3)C2)C(=O)c2ccccc2N1 (stereo not drawn)
TGI: 3.82 µM

Compound: CCOC(=O)C1C(=O)c2ccccc2CN1Cc1ccccc1 (stereo not drawn)
TGI: > 100 µM

Compound: Cc1ccc(S(=O)(=O)N2CCCCN(S(=O)(=O)c3ccc(C)cc3)Cc3ccccc3OCCOCCOc3c4cccc3Cc3cccc5c3OCCOCCOc3ccccc3CN(S(=O)(=O)c3ccc(C)cc3)CCCN(S(=O)(=O)c3ccc(C)cc3)Cc3ccccc3OCCOCCOc3c(cccc3C4)Cc3cccc(c3OCCOCCOc3ccccc3C2)C5)cc1
TGI: > 100 µM

Compound: Cc1ccc2c(=O)c3cccc(CC(=O)O)c3oc2c1C
TGI: > 100 µM

Compound: COc1cccc(-c2nc3c(C(=O)NCCN(C)C)cccc3[nH]2)c1
TGI: 68.1 µM

Compound: CC1NC(/C(=C/c2ccccc2O)NC(=O)c2ccccc2)OC1=O (stereo not drawn)
TGI: > 50 µM
